Here, each record is paired with measured pEC50 data.
Measured On: Toll-like receptor 8 (Homo sapiens, UniProt Q9NR97)
Sequence (Q9NR97 whole entry): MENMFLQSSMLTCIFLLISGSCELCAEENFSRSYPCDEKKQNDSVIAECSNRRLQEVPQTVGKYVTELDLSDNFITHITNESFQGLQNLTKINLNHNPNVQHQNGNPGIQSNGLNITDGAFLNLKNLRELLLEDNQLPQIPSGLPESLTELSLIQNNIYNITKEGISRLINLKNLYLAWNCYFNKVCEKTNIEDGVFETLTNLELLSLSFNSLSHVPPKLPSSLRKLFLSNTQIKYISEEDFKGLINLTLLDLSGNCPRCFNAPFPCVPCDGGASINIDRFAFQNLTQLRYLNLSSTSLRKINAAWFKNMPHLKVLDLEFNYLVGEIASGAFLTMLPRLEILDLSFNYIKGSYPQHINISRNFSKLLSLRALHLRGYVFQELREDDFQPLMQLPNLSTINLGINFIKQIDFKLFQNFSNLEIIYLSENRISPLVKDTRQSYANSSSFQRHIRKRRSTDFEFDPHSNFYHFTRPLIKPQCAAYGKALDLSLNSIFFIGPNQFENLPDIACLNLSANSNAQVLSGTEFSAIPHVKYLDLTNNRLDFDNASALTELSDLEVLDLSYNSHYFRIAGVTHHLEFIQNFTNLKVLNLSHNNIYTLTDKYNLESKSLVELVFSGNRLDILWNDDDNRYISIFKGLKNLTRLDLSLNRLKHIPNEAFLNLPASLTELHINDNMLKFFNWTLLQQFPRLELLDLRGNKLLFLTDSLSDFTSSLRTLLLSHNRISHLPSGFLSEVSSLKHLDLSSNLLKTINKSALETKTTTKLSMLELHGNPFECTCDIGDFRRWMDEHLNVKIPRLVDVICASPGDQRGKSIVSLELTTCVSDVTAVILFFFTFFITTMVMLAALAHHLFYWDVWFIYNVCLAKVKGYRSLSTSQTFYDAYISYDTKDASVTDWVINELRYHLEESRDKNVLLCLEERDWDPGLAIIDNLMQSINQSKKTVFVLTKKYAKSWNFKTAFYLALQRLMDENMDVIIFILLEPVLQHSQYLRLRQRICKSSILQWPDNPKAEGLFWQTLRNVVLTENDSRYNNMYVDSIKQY
Experiment: Agonist activity at TLR8 in human cryopreserved PBMC assessed as induction of IL-12p40 production measured after 24 hrs
pEC50 (log units): -log10 of the concentration in mol/L.

Worked examples, 5 compounds total:
CCCCNc1nc(N)nc2cccnc12	5.72
CCCCC[C@H](CO)Nc1nc(N)nc2cccnc12	5.48
CCCC[C@H](CN)Nc1nc(N)nc2cccnc12	4.60
CCCC(C)Nc1nc(N)nc2cccnc12 (stereo unspecified)	5.51
CCC[C@](C)(CO)Nc1nc(N)nc2cccnc12	5.62

(Q) Param item = `CCCC[C@](C)(CO)Nc1nc(N)nc2cc(Cl)cnc12` ; retrieve measured pEC50.
(A) 6.57

(Q) Which pEC50 value is on record for `CCCC[C@](C)(CO)Nc1nc(N)nc2cccnc12` ?
(A) 6.77

(Q) Sample `CCCC[C@](C)(CO)Nc1nc(N)nc2cc(C)cnc12` — what was its pEC50?
(A) 6.80
